# assay_system: Cannabinoid receptor 1 (Rattus norvegicus)
property_name: Ki (nM)
Write it as a number; the unit nM goes unstated.

Prompt line: Query for Cannabinoid receptor 1 (Rattus norvegicus): what Ki does the record show for Cc1c(COCC2CCCCC2)nn(-c2ccc(Cl)cc2Cl)c1-c1ccc(Cl)cc1 ?
Response line: 100

Prompt line: Query for Cannabinoid receptor 1 (Rattus norvegicus): what Ki does the record show for O=C(NN1CCCCC1)c1nn(-c2ccc(Cl)cc2Cl)c2c([N+](=O)[O-])cccc12 ?
Response line: 202

Prompt line: Query for Cannabinoid receptor 1 (Rattus norvegicus): what Ki does the record show for CCCCCc1ccc(-n2nc(C(=O)NN3CCCCC3)c(C)c2-c2ccc(Cl)cc2)cc1 ?
Response line: 1360

Prompt line: Query for Cannabinoid receptor 1 (Rattus norvegicus): what Ki does the record show for Cc1c(C(=O)NCCO)nn(-c2ccc(Cl)cc2Cl)c1-c1ccc(Br)cc1 ?
Response line: 165

* * *

Quick note: these are log10 Ki numbers for system: Cannabinoid receptor 1 (Rattus norvegicus, UniProt P20272)
Sequence (P20272 whole entry): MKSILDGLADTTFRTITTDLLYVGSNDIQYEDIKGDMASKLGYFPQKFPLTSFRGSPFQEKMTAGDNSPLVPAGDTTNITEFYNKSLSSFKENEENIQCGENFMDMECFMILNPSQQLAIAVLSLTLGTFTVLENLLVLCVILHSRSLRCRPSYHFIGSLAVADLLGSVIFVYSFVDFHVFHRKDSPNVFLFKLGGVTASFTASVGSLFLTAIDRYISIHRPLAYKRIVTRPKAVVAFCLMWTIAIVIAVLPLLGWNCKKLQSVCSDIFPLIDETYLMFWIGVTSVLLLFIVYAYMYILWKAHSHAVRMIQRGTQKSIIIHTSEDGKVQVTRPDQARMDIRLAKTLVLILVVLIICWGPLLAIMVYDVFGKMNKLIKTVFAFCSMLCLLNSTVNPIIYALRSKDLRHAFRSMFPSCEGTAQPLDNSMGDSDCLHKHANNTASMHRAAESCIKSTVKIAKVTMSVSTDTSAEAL
Scale type: logarithmic (base 10). Underlying Ki unit: nM.

Prompt line: Query for Cannabinoid receptor 1 (Rattus norvegicus, UniProt P20272): what log10 Ki does the record show for Cc1c(C(=O)NN2CCCCC2)nn(C2CCCCC2)c1-c1ccccc1 ?
Response line: 2.59

Prompt line: Query for Cannabinoid receptor 1 (Rattus norvegicus, UniProt P20272): what log10 Ki does the record show for CCCCc1ccc(-n2nc(C(=O)NN3CCCCC3)c(C)c2-c2ccc(Cl)cc2)cc1 ?
Response line: 2.41

Prompt line: Query for Cannabinoid receptor 1 (Rattus norvegicus, UniProt P20272): what log10 Ki does the record show for CCCCCn1nc(C(=O)NN2CCCCC2)c(C)c1-c1ccc(Br)cc1 ?
Response line: 1.80

Prompt line: Query for Cannabinoid receptor 1 (Rattus norvegicus, UniProt P20272): what log10 Ki does the record show for CCCCCCCNC(=O)c1nn(-c2ccc(Cl)cc2Cl)c(-c2ccc(Cl)cc2)c1C ?
Response line: 0.48

Prompt line: Query for Cannabinoid receptor 1 (Rattus norvegicus, UniProt P20272): what log10 Ki does the record show for CCCCCCn1nc(C(=O)NN2CCCCC2)c(C)c1-c1ccccc1 ?
Response line: 1.32

Prompt line: Query for Cannabinoid receptor 1 (Rattus norvegicus, UniProt P20272): what log10 Ki does the record show for Cc1c(C(=O)NN2CCCCC2)nn(-c2ccc(Cl)cc2)c1-c1ccc(Cl)cc1 ?
Response line: 1.74

* * *

Quick note: these are pKi numbers for system: Cannabinoid receptor 1 (Rattus norvegicus, UniProt P20272)
Expect pKi as a plain number equal to -log10 of the molar concentration.

Examples with answers:
molecule=CCCCCNC(=O)c1nn(-c2ccc(Cl)cc2Cl)c(-c2ccc(Cl)cc2)c1C recorded_result=8.52
molecule=CCCCCC(=O)c1nn(-c2ccc(Cl)cc2Cl)c(-c2ccc(Cl)cc2)c1C recorded_result=7.60
molecule="CCC(C)c1ccc(-n2nc(C(=O)NN3CCCCC3)c(C)c2-c2ccc(Cl)cc2)cc1 (centres undefined)" recorded_result=7.43

From here, focus on the item given below.
Prompt line: Query for Cannabinoid receptor 1 (Rattus norvegicus, UniProt P20272): what pKi does the record show for CCCCCCCn1nc(C(=O)NN2CCCCC2)c(C)c1-c1ccccc1 ?
Response line: 7.33

Data provenance: ChEMBL document CHEMBL1135902
